Each record here notes measured growth.
System: ACHN renal
assay.protocol: NCI-60 one-dose screen, 48 h (100 = growth as untreated, 0 = no growth, -100 = all killed)
condition.info: 10 µM unless noted
Compounds without any hit were thinned out: in the full panel of roughly 83,000, 20% have a hit.
quantity: growth (%)

molecule=C=CCNCCC#N quantity=growth reported=105
molecule="CC(=O)N1N=C(c2ccc(Cl)cc2)CC1c1cn(-c2ccccc2)nc1-c1ccc([N+](=O)[O-])cc1 (stereo unspecified)" quantity=growth reported=96.8
molecule="CC1(C)CC(=O)C2=C(C1)Oc1nc(N)c(C#N)c(N)c1C2c1ccc(F)cc1 (stereo unspecified)" quantity=growth reported=107
molecule="COc1ccc(/C=C2\\CCCC3=C2N=C2SC=NN2C3c2ccc(OC)c(OC)c2)cc1OC (stereo unspecified)" quantity=growth reported=37.4
molecule=COC(=O)c1ccc2[nH]c(O)c(C(=Nc3ccc(N(C)C(=O)CN4CCN(C)CC4)cc3)c3ccc(N)cc3)c2c1 quantity=growth reported=94.7
molecule=COc1ccc(-c2nc(SCC(C)C)nc(Nc3ccc(C)cc3)c2C#N)cc1 quantity=growth reported=13.6
molecule=COC(=O)c1ccc2[nH]c(O)c(C(=Nc3ccc(N(C)C(=O)CN4CCN(C)CC4)cc3)c3ccc(CCO)cc3)c2c1 quantity=growth reported=74.1
molecule=CCCCCCC(C(=O)OCC)(C(=O)OCC)C1CCCCCC1 quantity=growth reported=101
molecule=Cn1cnc2nc[nH]c2c1=S quantity=growth reported=97
molecule=COc1cc(OC)cc(-c2ccc(-c3ccc(C(=N)N)cc3)s2)c1 quantity=growth reported=-90
molecule="CCS(=O)(=O)N[C@@H]1O[C@H](COC(C)=O)C(OC(C)=O)[C@H](OC(C)=O)C1OC(C)=O (stereo partly specified)" quantity=growth reported=101
molecule=COC(=O)c1cc(Nc2ccc(O)c3c2C(=O)c2c([N+](=O)[O-])ccc(O)c2C3=O)cc(C(=O)OC)c1 quantity=growth reported=90.5
molecule=Cc1ncc(C(=O)Nc2ccc(CN3CCN(C)CC3)c(C(F)(F)F)c2)cc1C#Cc1cnc(NC2CC2)c2ncccc12 quantity=growth reported=-100
molecule=CC(C)OC(=O)[C@H](C)N[P@@](=O)(OC[C@@]1(C)O[C@@H](n2cc(F)c(N)nc2=O)C[C@@H]1O[P@](=O)(N[C@@H](C)C(=O)OC(C)C)Oc1ccccc1)Oc1ccccc1 quantity=growth reported=92.4
molecule="C=CC1CN2CCC1CC2C(O)c1ccnc2ccc(OC)cc12 (stereo unspecified)" quantity=growth reported=97.9
molecule="CCCCCCCCC1OC1CCCCCCCC(=O)O (stereo unspecified)" quantity=growth reported=103
molecule=COc1ccc(-n2nnnc2-c2cn[nH]c2C(F)(F)F)cc1 quantity=growth reported=99.3
molecule=COc1ccc(-c2nc(N)n(C(=S)Nc3ccccc3)n2)cc1 quantity=growth reported=97.9
molecule=O=C(NCCCl)Nc1nccnc1OCc1ccc(F)cc1 quantity=growth reported=105
molecule="O=C(O)CS(=O)c1ccc(Cl)cc1 (stereo unspecified)" quantity=growth reported=95.2
molecule=N=C(N)N=Nc1ccc(NN=C(N)N)c2ccccc12 quantity=growth reported=105

Source: PubChem BioAssay (NCI)
